Reference source: patent US20230096028A1

- Study system: SOS1 catalytic domain (residues 564-1049) (Homo sapiens, UniProt Q07889)
- Sequence (Q07889 564-1049): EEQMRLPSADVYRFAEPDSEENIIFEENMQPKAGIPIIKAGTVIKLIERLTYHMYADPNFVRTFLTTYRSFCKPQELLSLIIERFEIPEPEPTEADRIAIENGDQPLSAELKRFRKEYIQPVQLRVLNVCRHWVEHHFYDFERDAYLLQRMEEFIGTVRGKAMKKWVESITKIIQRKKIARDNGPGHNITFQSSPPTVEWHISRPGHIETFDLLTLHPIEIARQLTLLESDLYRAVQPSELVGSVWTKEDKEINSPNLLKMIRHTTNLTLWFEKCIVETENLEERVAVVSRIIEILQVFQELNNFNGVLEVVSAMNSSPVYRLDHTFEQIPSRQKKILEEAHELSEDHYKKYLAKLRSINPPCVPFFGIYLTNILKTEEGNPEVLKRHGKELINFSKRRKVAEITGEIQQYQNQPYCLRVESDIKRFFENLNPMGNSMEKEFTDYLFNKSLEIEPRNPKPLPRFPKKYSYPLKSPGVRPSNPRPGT
Field: Kd. Provide a value for each of the compounds that follow.

Entry "C[C@@H](Nc1nc(Cl)nc2c1CN(C(=O)[C@H]1CNCCO1)C2)c1cccc(C(F)F)c1F" , Kd reported as < 400 nM

Entry "C[C@@H](Nc1nc(Cl)nc2c1CN(C(=O)N1C[C@H]3CNCC[C@H]3C1)C2)c1cccc(C(F)(F)F)c1" , Kd reported as < 400 nM

Entry "C[C@@H](Nc1nc(Cl)nc2c1CN(C(=O)c1cnc3cc[nH]c3c1)C2)c1cc(N)cc(C(F)(F)F)c1" , Kd reported as > 400 nM

Entry "C[C@@H](Nc1nc(Cl)nc2c1CN(C(=O)N1CCNC(=O)C1)C2)c1cccc(C(F)F)c1F" , Kd reported as < 400 nM

---

pKd: −log10 of the molar value.
SOS1 catalytic domain (residues 564-1049) (Homo sapiens) data, read-out pKd

Entry "C[C@@H](Nc1nc(Cl)nc2c1CN(S(=O)(=O)C1CNC1)CC2)c1cc(N)cc(C(F)(F)F)c1" , pKd reported as > 6.40

Entry "C[C@@H](Nc1nc(Cl)nc2c1CN(C(=O)C1(N)CCOCC1)C2)c1cccc(C(F)F)c1F" , pKd reported as > 6.40

Entry "C[C@@H](Nc1nc(Cl)nc2c1CN(C(=O)C1(F)CCNCC1)C2)c1cccc(C(F)F)c1F" , pKd reported as > 6.40

Entry "C[C@@H](Nc1nc(Cl)nc2c1CN(C(=O)c1ccccn1)CC2)c1cc(N)cc(C(F)(F)F)c1" , pKd reported as < 6.40

Entry "C[C@@H](Nc1nc(Cl)nc2c1CN(C(=O)N1CCNc3ncncc31)C2)c1cccc(C(F)(F)F)c1" , pKd reported as > 6.40

Entry "C[C@@H](Nc1nc(OC2COC2)nc2c1CN(C(=O)N1CCOCC1)C2)c1cc(N)cc(C(F)(F)F)c1" , pKd reported as < 6.40

Entry "C[C@@H](Nc1nc(Cl)nc2c1CN(S(=O)(=O)N1CCCC1)CC2)c1cc(N)cc(C(F)(F)F)c1" , pKd reported as > 6.40

Entry "C[C@@H](Nc1nc(Cl)nc2c1CN(C(=O)C1(F)CCNCC1)C2)c1cc(N)cc(C(F)(F)F)c1" , pKd reported as > 6.40

Entry "C[C@@H](Nc1nc(Cl)nc2c1CN(C(=O)c1ccc3c(n1)CCNC3)C2)c1cc(N)cc(C(F)(F)F)c1" , pKd reported as > 6.40

Entry "C[C@@H](Nc1nc(Cl)nc2c1CN(C(=O)c1ncc[nH]1)C2)c1cc(N)cc(C(F)(F)F)c1" , pKd reported as < 6.40

Entry "C[C@@H](Nc1nc(Cl)nc2c1CN(C(=O)C1(C)CCN(C3COC3)CC1)C2)c1cccc(C(F)F)c1F" , pKd reported as > 6.40

Entry "C[C@@H](Nc1nc(Cl)nc2c1CN(C(=O)N1CCS(=O)(=O)CC1)C2)c1cc(N)cc(C(F)(F)F)c1" , pKd reported as > 6.40

Entry "C[C@@H](Nc1nc(Cl)nc2c1CN(S(=O)(=O)C1CCNCC1)C2)c1cc(N)cc(C(F)(F)F)c1" , pKd reported as > 6.40

Entry "C[C@@H](Nc1nc(Cl)nc2c1CN(C(=O)c1cc3c(s1)CCOC3)C2)c1cc(N)cc(C(F)(F)F)c1" , pKd reported as < 6.40

Entry "C[C@@H](Nc1nc(Cl)nc2c1CN(C(=O)N1CCNC3(CC3)C1)C2)c1cccc(C(F)(F)F)c1" , pKd reported as > 6.40

---

- Study system: SOS1 catalytic domain (residues 564-1049) (Homo sapiens, UniProt Q07889)
- Sequence (Q07889 564-1049): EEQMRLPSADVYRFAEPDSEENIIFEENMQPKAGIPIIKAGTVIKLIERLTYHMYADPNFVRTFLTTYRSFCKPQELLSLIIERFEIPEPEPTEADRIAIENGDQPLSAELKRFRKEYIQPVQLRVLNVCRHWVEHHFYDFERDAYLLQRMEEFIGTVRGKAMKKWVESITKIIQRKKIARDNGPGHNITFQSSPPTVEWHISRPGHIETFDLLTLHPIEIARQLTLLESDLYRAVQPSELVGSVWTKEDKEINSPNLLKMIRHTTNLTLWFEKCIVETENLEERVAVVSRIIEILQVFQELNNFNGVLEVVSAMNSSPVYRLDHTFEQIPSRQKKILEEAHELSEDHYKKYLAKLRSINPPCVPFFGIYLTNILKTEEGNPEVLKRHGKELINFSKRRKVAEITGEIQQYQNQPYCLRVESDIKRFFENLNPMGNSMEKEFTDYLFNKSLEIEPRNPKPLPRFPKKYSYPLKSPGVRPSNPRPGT
Field: IC50. Provide a value for each of the molecules that follow.

Entry Cc1nc2c(c(N[C@H](C)c3cc(N)cc(C(F)(F)F)c3)n1)CN(S(=O)(=O)N1CCN(C)CC1)C2 [Example 38] , IC50 reported as < 1000 nM

Entry Cc1cc([C@@H](C)Nc2nc(Cl)nc3c2CN(C(=O)N2CCOCC2)C3)cc(C(F)(F)F)c1 [Example 515] , IC50 reported as > 1000 nM

Entry COC1(C(=O)N2Cc3nc(Cl)nc(N[C@H](C)c4cccc(C(F)(F)CO)c4)c3C2)CCOCC1 [Example 167] , IC50 reported as < 1000 nM

Entry COC1(C(=O)N2CCc3nc(Cl)nc(N[C@H](C)c4cc(N)cc(C(F)(F)F)c4)c3C2)CCOC1 (some centres unmarked) [Example 198] , IC50 reported as > 1000 nM

Entry C[C@@H](Nc1nc(Cl)nc2c1CN(C(=O)N1CCOCC1)C2)c1cccc(C(F)(F)C2COCCN2C)c1 (some centres unmarked) [Example 460] , IC50 reported as < 1000 nM

Entry C[C@@H](Nc1nc(Cl)nc2c1CN(C(=O)c1cnc3cc[nH]c3c1)C2)c1cc(N)cc(C(F)(F)F)c1 [Example 90] , IC50 reported as > 1000 nM

Entry Cc1nc(N[C@H](C)c2cccc(C(F)F)c2F)c2c(n1)N(C)C(=O)N(C1CCN(C)CC1)C2 [Example 445] , IC50 reported as < 1000 nM

Entry C[C@@H](Nc1nc(Cl)nc2c1CN(C(=O)N1CCNC3(CC3)C1)C2)c1cccc(C(F)(F)F)c1 [Example 374] , IC50 reported as < 1000 nM

Entry COc1nccc(C(=O)N2CCc3nc(Cl)nc(N[C@H](C)c4cc(N)cc(C(F)(F)F)c4)c3C2)n1 [Example 234] , IC50 reported as > 1000 nM

Entry C[C@@H](Nc1nc(Cl)nc2c1CN(C(=O)N1CCc3ncccc3C1)C2)c1cc(N)cc(C(F)(F)F)c1 [Example 147] , IC50 reported as > 1000 nM

Entry C[C@@H](Nc1nc(Cl)nc2c1CN(C(=O)c1ccc(-n3ccnc3)cn1)CC2)c1cc(N)cc(C(F)(F)F)c1 [Example 250] , IC50 reported as > 1000 nM

Entry C[C@@H](Nc1nc(Cl)nc2c1CN(C(=O)N1CCOc3ncccc31)C2)c1cccc(C(F)(F)F)c1 [Example 366] , IC50 reported as < 1000 nM

Entry C[C@@H](Nc1nc(Cl)nc2c1CN(C(=O)C1(C#N)CCC1)CC2)c1cc(N)cc(C(F)(F)F)c1 [Example 202] , IC50 reported as > 1000 nM

Entry C[C@@H](Nc1nc(Cl)nc2c1CN(C(=O)N1CCOCC1)C2)c1cccc2c(F)coc12 [Example 468] , IC50 reported as < 1000 nM

Entry C[C@@H](Nc1nc(Cl)nc2c1CN(C(=O)N1CCNCC1C(F)(F)F)C2)c1cc(N)cc(C(F)(F)F)c1 (some centres unmarked) [Example 358] , IC50 reported as < 1000 nM

Entry C[C@@H](Nc1nc(CNC2CC2)nc2c1CN(C(=O)N1CCOCC1)C2)c1cccc(C(F)F)c1F [Example 508] , IC50 reported as < 1000 nM

Entry C[C@@H](Nc1nc(Cl)nc2c1CN(C(=O)N1CCOCC1)C2)c1cnc(C(F)(F)F)s1 [Example 474] , IC50 reported as > 1000 nM

Entry COC1(C(=O)N2Cc3nc(C(F)(F)CN)nc(N[C@H](C)c4cccc(C(F)F)c4F)c3C2)CCOCC1 [Example 488] , IC50 reported as < 1000 nM

Entry C[C@@H](Nc1nc(Cl)nc2c1CN(C(=O)N1CCOCC1)C2)c1cccc(CF)c1F [Example 527] , IC50 reported as < 1000 nM

Entry Cc1nc2c(c(N[C@H](C)c3cc(N)cc(C(F)(F)F)c3)n1)CN(CC1CCOC1)CC2 (some centres unmarked) [Example 56] , IC50 reported as < 1000 nM

Entry C[C@@H](Nc1nc(Cl)nc2c1CN(C(=O)N1CCCC13CCOCC3)C2)c1cc(N)cc(C(F)(F)F)c1 [Example 139] , IC50 reported as < 1000 nM

Entry C[C@@H](Nc1nc(Cl)nc2c1CN(C(=O)C13CN(C1)S(=O)(=O)C3)C2)c1cccc(C(F)F)c1F [Example 297] , IC50 reported as < 1000 nM

Entry C[C@@H](Nc1nc(Cl)nc2c1CN(S(=O)(=O)N1CCOCC1)CC2)c1cc(N)cc(C(F)(F)F)c1 [Example 29] , IC50 reported as < 1000 nM

Entry C[C@@H](Nc1nc(Cl)nc2c1CN(C(=O)C1(F)CCN(C3COC3)CC1)C2)c1cccc(C(F)F)c1F [Example 331] , IC50 reported as < 1000 nM

Entry CC(Nc1nc(Cl)nc2c1CN(C(=O)N1CCOCC1)C2)c1cccc2c1C[C@H](CO)C2 (stereo in doubt) [Example 464] , IC50 reported as < 1000 nM

Entry C[C@@H](Nc1nc(Cl)nc2c1CN(C(=O)c1cccc3c1OCCN3)C2)c1cc(N)cc(C(F)(F)F)c1 [Example 77] , IC50 reported as < 1000 nM

Entry C[C@@H](Nc1nc(Cl)nc2c1CN(C(=O)c1cc(N3CCOCC3)nc(N3CCOCC3)n1)CC2)c1cc(N)cc(C(F)(F)F)c1 [Example 230] , IC50 reported as > 1000 nM

Entry C[C@@H](Nc1nc(Cl)nc2c1CN(C(=O)N1CC3CCC(C1)N3)C2)c1cccc(C(F)F)c1F [Example 388] , IC50 reported as < 1000 nM

Entry COC1(C(=O)N2Cc3nc(Cl)nc(N[C@H](C)c4cccc(C(F)F)c4F)c3C2)CCNCC1 [Example 310] , IC50 reported as < 1000 nM
